These measurements were taken from paper PMC6176371.

TARGET DESC: UniProt P33261
Sequence (P33261 whole entry): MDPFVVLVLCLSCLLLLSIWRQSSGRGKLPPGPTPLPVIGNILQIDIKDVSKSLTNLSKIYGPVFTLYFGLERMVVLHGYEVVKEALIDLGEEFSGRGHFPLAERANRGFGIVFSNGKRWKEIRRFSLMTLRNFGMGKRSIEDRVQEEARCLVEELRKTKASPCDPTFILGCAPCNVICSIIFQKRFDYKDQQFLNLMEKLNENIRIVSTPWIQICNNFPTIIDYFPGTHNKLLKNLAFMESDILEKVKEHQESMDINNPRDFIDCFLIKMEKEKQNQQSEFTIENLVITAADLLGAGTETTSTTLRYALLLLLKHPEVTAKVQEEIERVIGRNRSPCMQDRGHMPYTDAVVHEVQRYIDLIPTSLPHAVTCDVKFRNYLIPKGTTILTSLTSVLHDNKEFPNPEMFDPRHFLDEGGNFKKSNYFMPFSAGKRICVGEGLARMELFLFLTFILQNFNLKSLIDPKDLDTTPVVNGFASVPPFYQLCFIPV
TEST PARAMETERS: CYP2C19, S-mephenytoin4′-hydroxylation, human liver microsomes
ASSAY READOUT: IC50 (µM)
Numeric only. Scale: µM

Lab note: CC1(C)[C@@H](O)CC[C@]2(C)[C@H]3C[C@@H](O)[C@@H]4[C@@H]([C@@](C)(O)CCCNCc5ccccc5)CC[C@@]4(C)[C@]3(C)CC[C@@H]12 gave IC50 of 15

###

TARGET DESC: CYP3A4 (Homo sapiens)
Sequence (P08684 whole entry): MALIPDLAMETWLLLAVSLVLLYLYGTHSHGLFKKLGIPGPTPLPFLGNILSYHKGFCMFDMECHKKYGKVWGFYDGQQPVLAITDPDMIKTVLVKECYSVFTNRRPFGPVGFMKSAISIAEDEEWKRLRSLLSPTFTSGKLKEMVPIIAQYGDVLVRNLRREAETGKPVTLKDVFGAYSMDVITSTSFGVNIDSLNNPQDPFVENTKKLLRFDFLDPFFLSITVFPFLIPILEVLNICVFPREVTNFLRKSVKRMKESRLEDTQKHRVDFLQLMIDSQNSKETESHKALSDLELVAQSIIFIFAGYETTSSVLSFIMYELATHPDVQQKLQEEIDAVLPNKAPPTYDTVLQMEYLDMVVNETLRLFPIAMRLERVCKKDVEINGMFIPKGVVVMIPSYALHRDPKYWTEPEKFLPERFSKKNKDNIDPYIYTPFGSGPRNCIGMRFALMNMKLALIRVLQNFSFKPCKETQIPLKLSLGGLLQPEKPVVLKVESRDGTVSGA
EXPERIMENT: CYP inhibition in pooled human liver microsomes, CYP3A4
Type: biochemical
TEST PARAMETERS: CYP3A4, Testosterone 6-β-hydroxylation
ASSAY READOUT: IC50 (µM)
Numeric only. Scale: µM

Measured IC50 for this entry CC1(C)[C@@H](O)CC[C@]2(C)[C@H]3C[C@@H](O)[C@@H]4[C@@H]([C@@](C)(O)CCCNCc5ccccc5)CC[C@@]4(C)[C@]3(C)CC[C@@H]12 on CYP3A4 (Homo sapiens): 8.43
